Test system: Human immunodeficiency virus type 1 reverse transcriptase (Human immunodeficiency virus 1), Q72547 [Y181I]
Threshold 500 nM: ID50 strictly smaller gives MET, otherwise NOT MET.

Take a look at these entries with their results.
(Q) Please check: ID50 for CCC(C)c1c(Cc2c(F)cccc2Cl)nc(SCC(=O)c2ccc(F)cc2)[nH]c1=O (stereo not given) , strictly under 500 nM or not?
(A) NOT MET

(Q) Consider CCC(C)c1c(Cc2c(F)cccc2Cl)nc(SCC(=O)c2ccc(OC)cc2)[nH]c1=O (stereo not given) . Does its ID50 lie strictly below 500 nM?
(A) NOT MET

(Q) Identify whether the compound COc1ccc(C(=O)CSc2nc(Cc3c(F)cccc3F)c(C(C)C)c(=O)[nH]2)cc1 records ID50 below 500 nM.
(A) NOT MET

(Q) Dear colleague, could you confirm whether ID50 of COc1ccc(C(=O)CSc2nc(Cc3c(Cl)cccc3Cl)c(C(C)C)c(=O)[nH]2)cc1 falls below 500 nM? Thanks.
(A) NOT MET

(Q) Take the compound CC(C)c1c(Cc2c(Cl)cccc2Cl)nc(SCC(=O)c2ccccc2)[nH]c1=O and say whether its ID50 is less than 500 nM.
(A) NOT MET

Others:
(Q) Report whether reported ID50 is lower than 500 nM (strictly) for O=C(CSc1nc(Cc2c(F)cccc2Cl)cc(=O)[nH]1)c1ccccc1
(A) MET

(Q) Given CCc1c(Cc2c(F)cccc2Cl)nc(SCC(=O)c2ccc(F)cc2)[nH]c1=O , is recorded ID50 strictly lower than 500 nM?
(A) MET

(Q) Find out if reported ID50 for COc1ccc(C(=O)CSc2nc(Cc3c(Cl)cccc3Cl)cc(=O)[nH]2)cc1 is less than 500 nM
(A) MET

(Q) Confirm or reject: ID50 of CC(C)c1c(Cc2c(Cl)cccc2Cl)nc(SCC(=O)c2ccc(F)cc2)[nH]c1=O lies strictly below 500 nM
(A) NOT MET

(Q) Determine if CCc1c(Cc2c(F)cccc2F)nc(SCC(=O)c2ccc(OC)cc2)[nH]c1=O shows ID50 strictly lower than 500 nM.
(A) NOT MET

(Q) Problem: For the compound CCc1c(Cc2c(F)cccc2Cl)nc(SCC(=O)c2ccccc2)[nH]c1=O , is ID50 under 500 nM?
(A) NOT MET

(Q) Lab log: compare recorded ID50 with 500 nM; is it strictly lower for Cc1c(Cc2c(Cl)cccc2Cl)nc(SCC(=O)c2ccc(F)cc2)[nH]c1=O ?
(A) NOT MET

(Q) I wonder whether CC(C)c1c(Cc2c(F)cccc2F)nc(SCC(=O)c2ccc(F)cc2)[nH]c1=O has ID50 below 500 nM. Can you tell?
(A) NOT MET

(Q) Quick check: does CCc1c(Cc2c(Cl)cccc2Cl)nc(SCC(=O)c2ccc(OC)cc2)[nH]c1=O have ID50 under 500 nM?
(A) MET

----------
Tested on: Human immunodeficiency virus 1
measurement.description: Antiviral activity against HIV1 NL4-3 in human MT4 cells assessed as inhibition of virus-induced cytopathogenicity by MTT assay
Type: functional, organism-based
stated.conditions: Human immunodeficiency virus 1, NL4-3, MT4
pEC50: −log10 of the molar value.
# binarize pEC50: threshold 7 inclusive, high side fulfilled, low side not fulfilled

(Q) Assess whether reported pEC50 for CCc1c(Cc2c(F)cccc2Cl)nc(SCC(=O)c2ccc(F)cc2)[nH]c1=O sits at 7 or higher.
(A) fulfilled

(Q) Determine whether this compound has pEC50 no lower than 7: O=c1cc(Cc2c(F)cccc2F)nc(SCCc2ccccc2)[nH]1
(A) not fulfilled

(Q) Does the reported pEC50 for O=c1cc(Cc2c(F)cccc2F)nc(SCCCc2ccccc2)[nH]1 fall at or above the 7 mark?
(A) not fulfilled

(Q) State whether the measured pEC50 reaches 7, counting equality as reaching it, for CCc1c(Cc2c(Cl)cccc2Cl)nc(SCC(=O)c2ccc(OC)cc2)[nH]c1=O
(A) not fulfilled

# credit: ChEMBL document CHEMBL1155883
